- System: CD2F1 mice, L1210 leukemia ip, survival T/C
- assay notes: NCI In Vivo Anticancer Drug Screen. Data for tumor model L1210 Leukemia (intraperitoneal) in CD2F1 (CDF1) mice
- condition context: endpoint: mean survival time; dose: 100.0 mg/kg/injection; schedule: Q04DX002 (ip); vehicle: saline with Tween-80; higher = longer survival
Toxic doses and inconclusive results are not listed.
measure name: T/C

CC1(CC(=O)O)NC(=O)NC1=O (configuration not stated) :: 96 % of control
OC1(c2cccc(C(F)(F)F)c2)CCN(C2CC2c2ccccc2)CC1 (configuration not stated) :: 97 % of control
CC1(C)CC(=O)C2(CNC3=C(CCC(C)(C)C3)C2)C(=O)C1 :: 91 % of control
Cc1ccc(S(=O)(=O)OCCCCCOS(=O)(=O)c2ccc(C)cc2)cc1 (tested in a mixture with another compound) :: 102 % of control
CC(=O)[C@@]12O[C@@H]1C[C@H]1[C@@H]3CCC4=CC(=O)CC[C@]4(C)[C@H]3CC[C@@]12C :: 96 % of control
Cn1c(CS)nc2ccccc21 :: 101 % of control
SCc1c(Cl)c(Cl)c(Cl)c(Cl)c1Cl :: 94 % of control
O=C(COc1ccc(F)cc1)OCCOC(=O)COc1ccc(F)cc1 :: 100 % of control
CCOC(CNc1ccc([N+](=O)[O-])cc1)OCC :: 100 % of control
CCCCCCCCCCCCCCCC(=O)Nc1ccc2c(c1)[nH]c(=O)c1cc(NC(=O)CCCCCCCCCCCCCCC)ccc12 :: 98 % of control
O=c1[nH]c2ccccc2nc1Cl :: 94 % of control
CC(=O)N/N=C/C(C)(C)C(C)(C)/C=N/NC(C)=O :: 103 % of control
N#CCCCCCCn1cnc2c(N)ncnc21 :: 105 % of control
Cc1cc(C(=O)O)c(CC(=O)O)o1 :: 104 % of control
COc1ccc(COC(=O)Nc2ccc([N+](=O)[O-])cc2)cc1 :: 96 % of control
O=[N+]([O-])c1ccc2c(c1)S(=O)c1cc([N+](=O)[O-])c(Br)cc1-2 (configuration not stated) (tested in a mixture with another compound) :: 108 % of control
CC(=Nc1ccccc1)C1=C(O)C(Cc2cccc(F)c2)NC1=O (configuration not stated) :: 116 % of control
CC(C)c1oc(=O)cc2c1C(O)C1OC(=O)C3(C)C(O)C4OC4C2(C)C13 (configuration not stated) (tested in a mixture with another compound) :: 105 % of control
CC(C)(C)c1ccc(-n2cnc3c(=O)[nH]c(N)nc32)cc1 :: 90 % of control
CC1=CCC(=O)O1 :: 102 % of control
O=[N+]([O-])c1ccc(C2Nc3cc(Cl)c(Cl)cc3S(=O)(=O)N2O)cc1 (configuration not stated) :: 107 % of control
NC(=O)OCCc1c2ccccc2nc2ccccc12 :: 105 % of control

###

- Test system: CD2F1 mice, L1210 leukemia ip, survival T/C
- assay notes: NCI In Vivo Anticancer Drug Screen. Data for tumor model L1210 Leukemia (intraperitoneal) in CD2F1 (CDF1) mice
- condition context: endpoint: mean survival time; dose: 400.0 mg/kg/injection; schedule: Q01DX001 (ip); vehicle: saline; higher = longer survival
- Procedure: The antitumor activity of compounds was measured in mice bearing transplantable tumors. Survival or tumor size were measured and the results are expressed as the measurement made in the treated group (T) divided by the measurement made in the vehicle treated control group (C). The tumor model used in this assay is L1210 Leukemia (intraperitoneal) in CD2F1 (CDF1) mice
Inconclusive results and toxic doses are left out.
measure name: T/C

Nc1ccc(CCC(=O)Nc2ccc(S(=O)(=O)F)cc2)cc1 :: 97 % of control
CCCN(CCC)S(=O)(=O)c1ccc(NC(=O)OCc2ccccc2)cc1 :: 93 % of control
C=C[Si](C=C)(C=C)C=C :: 107 % of control
COC1C(O)CC(=O)OC(C)C/C=C/C=C/C(OC2CCC(N(C)C)C(C)O2)C(C)CC(CC=O)C1OC1OC(C)C(OC2CC(C)(O)C(O)C(C)O2)C(N(C)C)C1O (configuration not stated) :: 106 % of control
Brc1ccc2ncc3ccccc3c2c1 :: 96 % of control
CCOC(=O)C=C(c1ccc(OC)c(OC)c1)c1ccc(OC)c(OC)c1 :: 102 % of control
O=S1(=O)CCC(C2CCCCC2)C1 (configuration not stated) :: 106 % of control
Cn1ncc(C(=O)O)c1[N+](=O)[O-] :: 94 % of control
OC(CN(C1CCCCC1)C1CCCCC1)c1ccc(Cl)c(Cl)c1 (configuration not stated) :: 96 % of control
O=C1CCCC2c3ccccc3NC12 (configuration not stated) :: 101 % of control
CSc1nc(N)c2ncn(C3C=CC(O)CO3)c2n1 (configuration not stated) :: 116 % of control
CC(=O)ON=C1C=CC(=C(C#N)c2ccccc2)C=C1 :: 90 % of control
